Hello, the source for this data is the supplement of paper PMC6757056, in case you need it.

B1: library; a variant is named by its letters at N, in order (parent)
chain: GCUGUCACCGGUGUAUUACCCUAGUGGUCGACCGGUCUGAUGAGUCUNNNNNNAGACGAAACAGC

- Variants of: B1
- method summary: FACS-Seq fitted mean relative fluorescence mCherry/BFP with ligand (log10 relative fluorescence); ligand: hypoxanthine (xanthine aptamer); ligand concentration (+) FACS-Seq: 5 mM; higher = higher reporter protein expression
- setup conditions: HEK293T, ligand present: yes
Reported FACS-Seq fitted mean (log10) values are given for each entry in this list.
Write the value as a bare number.

Consider the worked cases shown below.
- ACCGCG: 0.608
- GGACUG: 0.601
- GACAGA: 0.594
- GCGUUA: 0.594

Consider the variant `GUAGGC` and give its measured FACS-Seq fitted mean (log10).
0.611

Next up: `UGAUCG`
0.589

Do the same for `AUCUGG` please
0.609
